From: patent US20160272977

Please respond with reported pKi for every item in the list.
target: DNMT1 full-length (Homo sapiens, UniProt P26358 SEQ:1-1616); assay: inhibition; competitive vs hemimethylated DNA; conditions: tags: baculovirus Sf9
Sequence (P26358 whole entry): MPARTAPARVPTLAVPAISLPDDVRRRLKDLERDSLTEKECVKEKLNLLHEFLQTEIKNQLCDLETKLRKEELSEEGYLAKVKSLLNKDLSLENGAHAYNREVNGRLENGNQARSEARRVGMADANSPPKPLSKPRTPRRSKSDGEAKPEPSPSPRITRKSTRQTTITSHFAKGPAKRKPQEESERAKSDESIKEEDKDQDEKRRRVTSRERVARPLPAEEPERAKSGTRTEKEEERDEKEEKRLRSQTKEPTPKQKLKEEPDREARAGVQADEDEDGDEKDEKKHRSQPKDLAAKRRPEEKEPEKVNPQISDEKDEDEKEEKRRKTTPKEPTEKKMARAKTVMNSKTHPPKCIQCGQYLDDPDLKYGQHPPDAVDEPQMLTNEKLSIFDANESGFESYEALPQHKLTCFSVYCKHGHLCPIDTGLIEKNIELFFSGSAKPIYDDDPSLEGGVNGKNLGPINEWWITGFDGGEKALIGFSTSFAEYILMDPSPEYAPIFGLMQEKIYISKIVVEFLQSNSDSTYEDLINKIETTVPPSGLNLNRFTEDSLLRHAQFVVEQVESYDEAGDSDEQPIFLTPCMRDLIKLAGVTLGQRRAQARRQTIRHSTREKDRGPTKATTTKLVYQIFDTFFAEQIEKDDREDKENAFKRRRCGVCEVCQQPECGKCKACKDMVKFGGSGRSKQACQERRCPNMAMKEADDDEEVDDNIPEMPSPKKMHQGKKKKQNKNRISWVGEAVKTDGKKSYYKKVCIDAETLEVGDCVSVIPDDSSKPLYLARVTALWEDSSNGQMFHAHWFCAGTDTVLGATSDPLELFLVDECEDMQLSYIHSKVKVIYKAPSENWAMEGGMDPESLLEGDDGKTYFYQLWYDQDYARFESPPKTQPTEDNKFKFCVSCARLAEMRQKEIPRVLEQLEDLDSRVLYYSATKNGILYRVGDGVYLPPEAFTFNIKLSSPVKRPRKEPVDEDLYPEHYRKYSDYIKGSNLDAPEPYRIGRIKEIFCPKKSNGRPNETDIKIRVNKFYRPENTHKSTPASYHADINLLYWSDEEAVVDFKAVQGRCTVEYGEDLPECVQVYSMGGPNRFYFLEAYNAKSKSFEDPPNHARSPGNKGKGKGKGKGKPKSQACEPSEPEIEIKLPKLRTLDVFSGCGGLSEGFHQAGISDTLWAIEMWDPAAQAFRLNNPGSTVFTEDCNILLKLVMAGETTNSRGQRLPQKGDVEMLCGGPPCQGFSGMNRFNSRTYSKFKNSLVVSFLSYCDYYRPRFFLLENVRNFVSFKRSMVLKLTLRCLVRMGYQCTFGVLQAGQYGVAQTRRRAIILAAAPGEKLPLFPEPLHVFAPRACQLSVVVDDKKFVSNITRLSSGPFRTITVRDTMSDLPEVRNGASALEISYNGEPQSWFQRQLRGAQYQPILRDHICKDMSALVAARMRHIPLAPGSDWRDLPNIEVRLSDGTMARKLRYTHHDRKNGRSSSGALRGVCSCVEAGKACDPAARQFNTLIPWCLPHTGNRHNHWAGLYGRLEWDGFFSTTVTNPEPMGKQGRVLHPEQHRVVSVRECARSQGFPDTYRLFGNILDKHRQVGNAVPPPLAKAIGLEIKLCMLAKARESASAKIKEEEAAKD
Answers are plain numbers, as −log10 of the molar value.

Below, 5 binders whose answers are already recorded.
Binder: UCUUUGGUUAUCUAGCUGUAUGA (ssRNA) [miR-9-5p]
Test Value: 6.31
--
Binder: UAUUGCACUUGUCCCGGCCUGU (ssRNA) [miR-92a-3p]
Test Value: 5.78
--
Binder: UAAAGUGCUUAUAGUGCAGGUAG (ssRNA) [miR-20a-5p]
Test Value: 6.25
--
Binder: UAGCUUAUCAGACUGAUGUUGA (ssRNA) [miR-21-5p]
Test Value: 5.89
--
Binder: AGGUUGGGAUCGGUUGCAAUGCU (ssRNA) [miR-92a-1-5p]
Test Value: 6.32

Report pKi for each item below.
1. UGAGAACUGAAUUCCAUGGGUU (ssRNA) [miR-146a-5p]
2. GUCCAGUUUUCCCAGGAAUCCCU (ssRNA) [miR-145-5p]
3. AUAAAGCUAGAUAACCGAAAGU (ssRNA) [miR-9-3p]
4. UCGGAUCCGUCUGAGCUUGGCU (ssRNA) [miR-127-3p]
5. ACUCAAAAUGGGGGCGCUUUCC (ssRNA) [miR-373-5p]

1: 5.99; 2: 5.61; 3: 5.80; 4: 6.57; 5: 6.53
